Data provenance is patent US12178809B2.

# test_target: AOC1 (Homo sapiens (Human))
# Sequence (P19801 20-751): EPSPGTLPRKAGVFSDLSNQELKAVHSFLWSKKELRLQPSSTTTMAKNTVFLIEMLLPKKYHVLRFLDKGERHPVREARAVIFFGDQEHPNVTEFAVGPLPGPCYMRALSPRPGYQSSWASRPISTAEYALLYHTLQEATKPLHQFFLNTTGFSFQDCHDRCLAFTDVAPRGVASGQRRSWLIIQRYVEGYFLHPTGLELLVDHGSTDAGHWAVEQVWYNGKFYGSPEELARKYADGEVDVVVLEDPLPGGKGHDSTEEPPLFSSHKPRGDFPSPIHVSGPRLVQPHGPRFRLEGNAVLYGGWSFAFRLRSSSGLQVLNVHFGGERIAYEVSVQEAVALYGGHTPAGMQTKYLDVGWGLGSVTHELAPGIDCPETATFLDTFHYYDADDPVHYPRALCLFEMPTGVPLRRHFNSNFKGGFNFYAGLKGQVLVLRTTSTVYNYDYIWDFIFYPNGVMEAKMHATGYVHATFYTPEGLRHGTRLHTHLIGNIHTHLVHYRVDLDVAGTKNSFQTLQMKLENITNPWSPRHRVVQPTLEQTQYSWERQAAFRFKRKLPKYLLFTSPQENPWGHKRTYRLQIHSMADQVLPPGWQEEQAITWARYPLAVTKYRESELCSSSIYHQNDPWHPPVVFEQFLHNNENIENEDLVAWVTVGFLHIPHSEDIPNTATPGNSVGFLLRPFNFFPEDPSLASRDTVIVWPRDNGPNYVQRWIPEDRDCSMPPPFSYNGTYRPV
# assay_procedure: AOC1 biochemical assay (Amplex Red)
# measurement_setup: comparison table, unit μM; read-out: IC50 AOC1
measurement_kind: IC50

NC/C(=C\F)COc1ccc(S(=O)(=O)N2CC[C@H](O)C2)cn1: > 50 µM
COC1CN(S(=O)(=O)c2ccc(OC/C(=C/F)CN)cc2)C1 [Reference compound A, reference compound]: > 50 µM
NC/C(=C\F)COc1ccc(S(=O)(=O)N2CC[C@H](O)C2)cc1 [Reference compound B, reference compound]: > 50 µM

Prompt: Which IC50 is listed for COC1CCN(S(=O)(=O)c2ccc(OC/C(=C/F)CN)nc2)C1.O=C(O)C(F)(F)F (stereo not shown) ?
Response: > 50 µM

###

# test_target: human AOC3 enzyme (Homo sapiens (Human))
# Sequence (Q16853 whole entry): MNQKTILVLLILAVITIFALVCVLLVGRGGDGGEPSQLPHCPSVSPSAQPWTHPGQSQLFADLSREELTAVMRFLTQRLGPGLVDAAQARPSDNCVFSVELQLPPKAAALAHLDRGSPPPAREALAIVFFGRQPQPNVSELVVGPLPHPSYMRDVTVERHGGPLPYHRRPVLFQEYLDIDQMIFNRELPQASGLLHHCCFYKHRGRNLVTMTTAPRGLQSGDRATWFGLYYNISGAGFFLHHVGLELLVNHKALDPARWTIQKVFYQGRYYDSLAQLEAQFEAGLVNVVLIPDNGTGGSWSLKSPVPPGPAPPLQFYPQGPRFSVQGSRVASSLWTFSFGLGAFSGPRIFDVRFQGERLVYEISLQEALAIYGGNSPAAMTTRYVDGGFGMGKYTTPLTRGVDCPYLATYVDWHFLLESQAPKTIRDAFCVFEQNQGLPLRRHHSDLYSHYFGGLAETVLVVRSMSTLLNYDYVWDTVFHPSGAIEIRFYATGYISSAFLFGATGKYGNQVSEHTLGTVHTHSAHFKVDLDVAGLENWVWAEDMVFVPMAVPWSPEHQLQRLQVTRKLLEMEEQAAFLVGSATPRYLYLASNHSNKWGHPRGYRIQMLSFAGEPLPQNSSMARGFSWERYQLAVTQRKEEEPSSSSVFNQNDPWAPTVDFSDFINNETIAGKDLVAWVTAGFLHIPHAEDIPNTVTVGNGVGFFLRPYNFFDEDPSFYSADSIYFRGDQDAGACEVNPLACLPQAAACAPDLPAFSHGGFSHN
# assay_procedure: AOC3 biochemical assay (MAO-Glo)
# measurement_setup: read-out: AOC3 IC50
# Description: The MAO-Glo™ Assay (commercially available from PROMEGA, #V1402) provides a sensitive method for the measurement of monoamine oxidase (MAO) activity (Valley, M. P. et al., 2006, Anal. Biochem. 359: 238-246) from a variety of tissues, biofluids or recombinant expressed or purified enzymes. […] After a spontaneous elimination and a catalyzed esterase reaction, the turnover of the luciferine by the luciferase is recorded as a signal of AOC3 activity. […]
measurement_kind: IC50 (nM)

Some solved entries appear below for comparison.
CC(=O)N(C)C1CCN(S(=O)(=O)c2ccc(OC/C(=C/F)CN)nc2)CC1: 54
NC/C(=C\F)COc1ccc(S(=O)(=O)N2CCC(C(=O)O)CC2)cn1: 89
NC/C(=C\F)COc1ccc(S(=O)(=O)N2CC3CC3C2)cn1 (centres unmarked): 5
NC/C(=C\F)COc1ccc(S(=O)(=O)N2C[C@H]3C[C@@]3(C(=O)N3CCOCC3)C2)cn1: 46
NC/C(=C\F)COc1ccc(S(=O)(=O)N2CCCCC2)cn1: 5
NC/C(=C\F)COc1ccc(S(=O)(=O)N2CCC(C(=O)NCCF)CC2)cn1: 17

[A] CN1CCN(C2CCN(S(=O)(=O)c3ccc(OC/C(=C/F)CN)nc3)CC2)C1=O
[B] CCNC(=O)C1(C)CCN(S(=O)(=O)c2ccc(OC/C(=C/F)CN)nc2)CC1
Prompt: In the pair A and B , the larger recorded IC50 belongs to which? Please indicate the selected item by its label.
Response: A
(A: 20 nM, B: 14 nM)

###

# test_target: AOC2 (Homo sapiens (Human))
# Sequence (O75106 whole entry): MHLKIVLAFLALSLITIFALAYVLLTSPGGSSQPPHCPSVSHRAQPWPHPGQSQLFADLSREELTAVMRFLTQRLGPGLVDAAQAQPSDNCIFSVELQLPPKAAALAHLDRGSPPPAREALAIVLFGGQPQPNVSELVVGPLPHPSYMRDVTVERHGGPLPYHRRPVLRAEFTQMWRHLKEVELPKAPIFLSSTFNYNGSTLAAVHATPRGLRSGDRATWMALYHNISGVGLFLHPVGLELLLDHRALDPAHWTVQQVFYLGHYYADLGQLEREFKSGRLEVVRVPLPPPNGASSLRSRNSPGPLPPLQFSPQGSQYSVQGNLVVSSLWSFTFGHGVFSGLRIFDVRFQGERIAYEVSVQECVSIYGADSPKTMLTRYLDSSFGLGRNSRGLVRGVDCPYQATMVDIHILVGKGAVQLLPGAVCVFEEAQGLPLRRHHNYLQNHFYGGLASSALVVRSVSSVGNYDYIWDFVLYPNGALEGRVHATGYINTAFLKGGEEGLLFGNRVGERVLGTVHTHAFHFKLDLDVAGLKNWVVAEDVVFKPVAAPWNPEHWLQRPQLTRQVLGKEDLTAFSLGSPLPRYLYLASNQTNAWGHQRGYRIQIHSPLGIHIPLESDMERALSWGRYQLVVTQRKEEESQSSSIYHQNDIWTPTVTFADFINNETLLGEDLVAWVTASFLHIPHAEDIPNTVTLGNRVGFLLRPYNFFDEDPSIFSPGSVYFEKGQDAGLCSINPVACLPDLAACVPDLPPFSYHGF
# assay_procedure: AOC2 biochemical assay (Amplex Red)
# measurement_setup: read-out: AOC2 IC50
pIC50: −log10 of the molar value.
measurement_kind: pIC50

CCNC(=O)CC1CCN(S(=O)(=O)c2ccc(OC/C(=C/F)CN)nc2)CC1 [Example 19]: 6.67

[P] NC/C(=C\F)COc1ccc(S(=O)(=O)N2CC(C3CCN(C(=O)C4CC4)CC3)C2)cn1 [Example 32]
[Q] CCC(=O)NC1CCN(S(=O)(=O)c2ccc(OC/C(=C/F)CN)nc2)CC1 [Example 02]
[R] NC/C(=C\F)COc1ccc(S(=O)(=O)N2CC[C@H](O)C2)cn1 [Example 35]
Prompt: rank_up(items): orders items by reported pIC50 in ascending numerical order. Answer by listing the labels in the requested order.
Response: Q, R, P
(Q: 5.94, R: 6.68, P: 7.14)
